These data points were gathered from ChEMBL document CHEMBL1255526.

# Tested system: Substance-P receptor (Homo sapiens, UniProt P25103)
# Sequence (P25103 whole entry): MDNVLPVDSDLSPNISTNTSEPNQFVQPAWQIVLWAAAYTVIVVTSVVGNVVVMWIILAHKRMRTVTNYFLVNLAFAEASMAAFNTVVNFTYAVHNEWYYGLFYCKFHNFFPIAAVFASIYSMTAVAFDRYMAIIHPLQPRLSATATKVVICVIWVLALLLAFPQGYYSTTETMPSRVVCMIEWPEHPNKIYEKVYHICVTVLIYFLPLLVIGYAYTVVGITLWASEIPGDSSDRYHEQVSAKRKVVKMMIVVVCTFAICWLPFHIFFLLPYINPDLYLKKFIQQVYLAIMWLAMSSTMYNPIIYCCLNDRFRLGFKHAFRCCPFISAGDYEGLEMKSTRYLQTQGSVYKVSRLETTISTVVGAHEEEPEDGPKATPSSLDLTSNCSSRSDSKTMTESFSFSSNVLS
# Experiment notes: Displacement of [125I]substance P from human NK1 receptor expressed in CHO cells in presence of 50% human serum
# Type: cell-based
Metric name: IC50 (nM)

# Compound, Metric name, Quantitative readout
measured = [
    ("C[C@@H](O[C@H]1CN2C(=O)[C@@H]3C[C@H](N)C[C@@H]3[C@H]2[C@@H]1c1ccc(F)cc1)c1cc(C(F)(F)F)cc(C(F)(F)F)c1", "IC50", 47),
    ("CC(O[C@H]1CN2C(=O)[C@@H]3CC(N)C[C@@H]3[C@H]2[C@@H]1c1ccc(F)cc1)c1cc(C(F)(F)F)cc(C(F)(F)F)c1 (single isomer, unassigned)", "IC50", 13),
    ("C[C@@H](O[C@H]1CN2C(=O)[C@@H]3C[C@@H](NCc4ccccc4)C[C@@H]3[C@H]2[C@@H]1c1ccc(F)cc1)c1cc(C(F)(F)F)cc(C(F)(F)F)c1", "IC50", 2.3),
    ("C[C@@H](O[C@H]1CN2C(=O)C3CNCC3[C@H]2[C@@H]1c1ccc(F)cc1)c1cc(C(F)(F)F)cc(C(F)(F)F)c1 (single isomer, unassigned) [FIRST ELUDED ISOMER]", "IC50", 15),
    ("CC[C@@]1(O)C[C@H]2[C@H]3[C@H](c4ccc(F)cc4)[C@@H](O[C@H](C)c4cc(C(F)(F)F)cc(C(F)(F)F)c4)CN3C(=O)[C@H]2C1", "IC50", 2.3),
    ("C[C@@H](O[C@H]1CN2C(=O)C3CN(C4=CC(=O)CC4)CC3[C@H]2[C@@H]1c1ccc(F)cc1)c1cc(C(F)(F)F)cc(C(F)(F)F)c1 (single isomer, unassigned) [FIRST ELUDED ISOMER]", "IC50", 1.9),
    ("C[C@@H](O[C@H]1CN2C(=O)[C@H]3C[C@H](O)C[C@H]3[C@H]2[C@@H]1c1ccc(F)cc1)c1cc(C(F)(F)F)cc(C(F)(F)F)c1", "IC50", 1.7),
]
